In this section we review reported chromatographic logP values for a set of compounds.
# ASSAY COMMENT: Log P by HPLC on reversed phase columns (EEC directive 79/831 Annex V.A8)
# Format: physicochemical
# MEASUREMENT PARAMETERS: LC-UV, acidic range, 0.1% formic acid in water and acetonitrile as eluent; read-out: LogP [a]
MEASUREMENT KIND: chromatographic logP

[[record]]
compound = "C=CCOc1ccc(CC(C)=O)c(F)c1 [Z-iv-01, 1-[4-(allyloxy)-2-fluorophenyl]acetone]"
quantitative_result = 2.6

[[record]]
compound = "C#CCOc1cc(F)cc(F)c1N=C=S [Z-ii-03]"
quantitative_result = 3.68

[[record]]
compound = "CC(=O)Cc1ccc(O)cc1F [1-(2-fluoro-4-hydroxyphenyl)acetone]"
quantitative_result = 1.13

[[record]]
compound = "COc1ccc(CC(C)=O)c(F)c1 [Z-iv-02, 1-(2-fluoro-4-methoxyphenyl)acetone]"
quantitative_result = 1.95


====

# ASSAY COMMENT: Log P by HPLC on reversed phase columns (EEC directive 79/831 Annex V.A8)
# Assay type: physicochemical
MEASUREMENT KIND: LogP [a]

[[record]]
query_smiles = "C#CCOc1cc(F)cc(F)c1Nc1c(-c2ccc(OC)cc2F)c(C)nn1C"
measurement_kind = "LogP [a]"
result = "2.86^[a]"

[[record]]
query_smiles = "C=CCOc1ccc(F)c(Nc2c(-c3ccc(F)cc3Cl)c(C)nn2C)c1"
measurement_kind = "LogP [a]"
result = "3.78^[a];"

[[record]]
query_smiles = "C#CCOc1ccc(Nc2c(-c3ccc(F)cc3Cl)c(C)nn2C)c(Cl)c1"
measurement_kind = "LogP [a]"
result = "3.65^[a];"

[[record]]
query_smiles = "C=CCOc1ccc(F)c(N=C=S)c1"
measurement_kind = "LogP [a]"
result = "4.30^[a]"

[[record]]
query_smiles = "C=CCOc1ccc(N=C=S)cc1"
measurement_kind = "LogP [a]"
result = 4.06

[[record]]
query_smiles = "C=CCOc1cc(F)c(N=C=S)c(F)c1"
measurement_kind = "LogP [a]"
result = "4.54^[a]"

[[record]]
query_smiles = "C=CCOc1cccc(Cl)c1Nc1c(-c2ccc(F)cc2Cl)c(C)nn1C"
measurement_kind = "LogP [a]"
result = "4.06^[a]"

[[record]]
query_smiles = "C=CCOc1cc(F)c(N=C=S)cc1F"
measurement_kind = "LogP [a]"
result = "4.24^[a]"

[[record]]
query_smiles = "C=CCOc1cc(F)c(Nc2c(-c3cc(OC)cc(OC)c3)c(C)nn2C)c(F)c1"
measurement_kind = "LogP [a]"
result = "3.11^[a]"

[[record]]
query_smiles = "C=CCOc1ccc(N=C=S)c(Cl)c1"
measurement_kind = "LogP [a]"
result = "4.72^[a]; 4.72^[b]"

[[record]]
query_smiles = "C#CCOc1ccc(Nc2c(-c3ccc(Cl)cc3Cl)c(C)nn2C)c(Cl)c1"
measurement_kind = "LogP [a]"
result = "4.13^[a];"

[[record]]
query_smiles = "C=CCOc1ccc(F)cc1N=C=S"
measurement_kind = "LogP [a]"
result = "4.24^[a]"

[[record]]
query_smiles = "C=CCOc1cc(C)ccc1Nc1c(-c2ccc(F)cc2Br)c(C)nn1C"
measurement_kind = "LogP [a]"
result = "4.39^[a]"

[[record]]
query_smiles = "C#CCOc1ccc(F)cc1Nc1c(-c2ccc(F)cc2Br)c(C)nn1C"
measurement_kind = "LogP [a]"
result = "3.64^[a]"

[[record]]
query_smiles = "C#CCOc1cc(F)c(Nc2c(-c3cc(OC)cc(OC)c3)c(C)nn2C)c(F)c1"
measurement_kind = "LogP [a]"
result = "2.73^[a]"

[[record]]
query_smiles = "C#CCOc1cc(F)c(Nc2c(-c3c(F)cc(OC)cc3F)c(C)nn2C)c(F)c1"
measurement_kind = "LogP [a]"
result = "2.85^[a]"

[[record]]
query_smiles = "C=CCOc1ccc(-c2c(C)nn(C)c2Nc2c(F)cc(OCC=C)cc2F)c(F)c1"
measurement_kind = "LogP [a]"
result = "3.62^[a]"

[[record]]
query_smiles = "C#CCOc1ccc(Nc2c(-c3ccc(F)cc3Cl)c(C)nn2C)c(F)c1"
measurement_kind = "LogP [a]"
result = "3.25^[a];"

[[record]]
query_smiles = "C=CCOc1ccc(Nc2c(-c3ccc(F)cc3Cl)c(C)nn2C)cc1"
measurement_kind = "LogP [a]"
result = "3.51^[a];"

[[record]]
query_smiles = "C=CCOc1cc(C)ccc1Nc1c(-c2ccc(Cl)cc2Cl)c(C)nn1C"
measurement_kind = "LogP [a]"
result = "4.85^[a]"

[[record]]
query_smiles = "C#CCOc1ccc(Nc2c(-c3ccc(F)cc3Cl)c(C)nn2C)cc1F"
measurement_kind = "LogP [a]"
result = "3.17^[a];"

[[record]]
query_smiles = "C#CCOc1cc(F)cc(F)c1Nc1c(-c2ccc(Cl)nc2)c(C)nn1C"
measurement_kind = "LogP [a]"
result = "2.69^[a];"

[[record]]
query_smiles = "C=CCOc1cc(F)c(N(C)c2c(-c3ccc(F)cc3Cl)c(C)nn2C)c(F)c1"
measurement_kind = "LogP [a]"
result = "4.40^[a]"

[[record]]
query_smiles = "C#CCOc1cccc(Cl)c1Nc1c(-c2ccc(F)cc2F)c(C)nn1C"
measurement_kind = "LogP [a]"
result = "3.26^[a]"

[[record]]
query_smiles = "C#CCOc1cc(F)cc(F)c1Nc1c(-c2ccccc2F)c(C)nn1C"
measurement_kind = "LogP [a]"
result = "2.96^[a]"

[[record]]
query_smiles = "C#CCOc1cc(C)ccc1N=C=S"
measurement_kind = "LogP [a]"
result = "3.82^[a]"

[[record]]
query_smiles = "C=CCOc1cc(F)c(Nc2c(-c3ccccc3F)c(C)nn2C)c(F)c1"
measurement_kind = "LogP [a]"
result = "3.22^[a]"

[[record]]
query_smiles = "C#CCOc1ccc(F)c(N=C=S)c1"
measurement_kind = "LogP [a]"
result = "3.62^[a]"

[[record]]
query_smiles = "C#CCOc1cc(C)ccc1Nc1c(-c2ccc(F)cc2Br)c(C)nn1C"
measurement_kind = "LogP [a]"
result = "3.87^[a]"

[[record]]
query_smiles = "C=CCOc1ccc(F)cc1Nc1c(-c2ccc(Cl)cc2Cl)c(C)nn1C"
measurement_kind = "LogP [a]"
result = "4.49^[a]"

[[record]]
query_smiles = "C=CCOc1ccc(Nc2c(-c3ccc(F)cc3Cl)c(C)nn2C)c(Cl)c1"
measurement_kind = "LogP [a]"
result = "4.23^[a];"

[[record]]
query_smiles = "C#CCOc1ccc(C#N)cc1N=C=S"
measurement_kind = "LogP [a]"
result = "3.13^[a]"

[[record]]
query_smiles = "C#CCOc1cccc(Cl)c1Nc1c(-c2ccc(Cl)cc2Cl)c(C)nn1C"
measurement_kind = "LogP [a]"
result = "3.99^[a]"

[[record]]
query_smiles = "C#CCOc1cc(F)c(Nc2c(-c3ccccc3F)c(C)nn2C)c(F)c1"
measurement_kind = "LogP [a]"
result = "2.78^[a]"

[[record]]
query_smiles = "C=CCOc1ccccc1Nc1c(-c2ccc(Cl)cc2Cl)c(C)nn1C"
measurement_kind = "LogP [a]"
result = "4.49^[a]"

[[record]]
query_smiles = "C#CCOc1cc(F)c(-c2c(C)nn(C)c2Nc2c(F)cc(F)cc2OCC#C)c(F)c1"
measurement_kind = "LogP [a]"
result = "2.99^[a]"

[[record]]
query_smiles = "C#CCOc1cc(F)c(Nc2c(-c3ccc(Cl)cc3Cl)c(C)nn2C)c(F)c1"
measurement_kind = "LogP [a]"
result = "3.44^[a]"

[[record]]
query_smiles = "C#CCOc1cccc(Cl)c1Nc1c(-c2ccc(F)cc2Cl)c(C)nn1C"
measurement_kind = "LogP [a]"
result = "3.56^[a]"

